Biological target: T1, V domain of human CD33 (human, UniProt P20138 18-139, limits assumed)
T1 construct: recombinant, fully glycosylated V domain; also called Human CD33 V domain
Experiment: SPR, Fab captured, 37C;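 also: biacore 8K surface plasmon resonance with Fabs held on an amine-coupled anti-Fab antibody surface, soluble monomeric CD33 domain injected as analyte, double-referenced 1:1 binding fit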
experimental endpoint: koff (s⁻¹)
Expressed in s⁻¹, but write only the number.

### Prompt Returns the measured koff for the input binder. Input: ADI-11776 Fab (Fab, V domains shown, Fab fragment; also called Ab3; H76) VH: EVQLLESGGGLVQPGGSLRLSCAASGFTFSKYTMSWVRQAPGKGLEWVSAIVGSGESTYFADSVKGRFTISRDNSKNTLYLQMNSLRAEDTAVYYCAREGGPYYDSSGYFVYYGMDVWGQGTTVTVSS VL: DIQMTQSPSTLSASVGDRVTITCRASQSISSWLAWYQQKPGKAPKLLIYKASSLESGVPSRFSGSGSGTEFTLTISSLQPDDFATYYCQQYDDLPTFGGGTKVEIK
### Response 0.00143

### Prompt Returns the measured koff for the input binder. Input: ADI-10159 Fab (Fab, V domains shown, Fab fragment; also called Ab1; G59) VH: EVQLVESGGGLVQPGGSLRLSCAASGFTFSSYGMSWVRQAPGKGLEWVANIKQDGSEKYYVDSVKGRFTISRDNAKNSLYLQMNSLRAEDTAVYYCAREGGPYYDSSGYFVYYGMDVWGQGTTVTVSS VL: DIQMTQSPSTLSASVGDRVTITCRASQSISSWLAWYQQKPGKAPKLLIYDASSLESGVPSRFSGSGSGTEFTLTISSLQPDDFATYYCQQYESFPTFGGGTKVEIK
### Response 0.005

### Prompt Returns the measured koff for the input binder. Input: ADI-11839 Fab (Fab, V domains shown, Fab fragment; also called Ab28) VH: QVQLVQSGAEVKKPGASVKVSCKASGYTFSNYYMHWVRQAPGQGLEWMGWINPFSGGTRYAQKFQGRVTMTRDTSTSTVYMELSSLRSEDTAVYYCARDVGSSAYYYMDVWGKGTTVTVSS VL: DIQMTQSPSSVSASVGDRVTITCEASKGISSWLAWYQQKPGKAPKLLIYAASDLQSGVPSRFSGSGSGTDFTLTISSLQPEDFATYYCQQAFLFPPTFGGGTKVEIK
### Response 0.41

### Prompt Returns the measured koff for the input binder. Input: ADI-10164 Fab (Fab, V domains shown, Fab fragment; also called Ab18) VH: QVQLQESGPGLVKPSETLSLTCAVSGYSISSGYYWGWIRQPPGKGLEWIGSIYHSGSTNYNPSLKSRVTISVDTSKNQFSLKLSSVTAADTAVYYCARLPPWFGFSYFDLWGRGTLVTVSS VL: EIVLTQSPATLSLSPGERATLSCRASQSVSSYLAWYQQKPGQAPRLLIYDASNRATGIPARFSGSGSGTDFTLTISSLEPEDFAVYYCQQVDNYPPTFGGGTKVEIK
### Response 0.37

### Prompt Returns the measured koff for the input binder. Input: ADI-11809 Fab (Fab, V domains shown, Fab fragment; also called Ab6) VH: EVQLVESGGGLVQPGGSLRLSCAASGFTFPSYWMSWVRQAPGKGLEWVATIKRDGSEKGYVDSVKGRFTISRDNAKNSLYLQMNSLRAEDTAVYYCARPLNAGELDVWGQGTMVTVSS VL: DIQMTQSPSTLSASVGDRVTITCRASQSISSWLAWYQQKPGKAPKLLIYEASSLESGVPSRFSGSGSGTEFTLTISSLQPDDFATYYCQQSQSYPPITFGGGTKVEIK
### Response 0.000769
